Data provenance is patent EP0492136A2.

experimental-target: HIV-1 protease (Human immunodeficiency virus type 1 group M subtype B)
Measured IC50, listed per entry for reference.
quantity-measured: IC50

{"compound": "O=C(Cc1ccccn1)NC1CCCCC1NC(=O)C(Cc1ccccc1)CC(O)CC(Cc1ccccc1)C(=O)NC1CCCCC1NC(=O)Cc1ccccn1 (centres unmarked) [Example 327]", "experimental-target": "HIV-1 protease (Human immunodeficiency virus type 1 group M subtype B)", "observed-value": "0.1 µM"}
{"compound": "O=C(NC1CCCCC1Nc1cccnc1)C(Cc1ccccc1)CC(O)CC(Cc1ccccc1)C(=O)NC1CCCCC1Nc1cccnc1 (centres unmarked) [Example 324]", "experimental-target": "HIV-1 protease (Human immunodeficiency virus type 1 group M subtype B)", "observed-value": "0.1 µM"}
{"compound": "CC(C)(C)NC(=O)CN(Cc1ccccc1)CC(O)CN(CC(=O)NC(C)(C)C)Cc1ccccc1 [Example 53]", "experimental-target": "HIV-1 protease (Human immunodeficiency virus type 1 group M subtype B)", "observed-value": "100 µM"}
{"compound": "CCOC(=O)CN(CC1CCCCC1)CC(O)(CO)CN(CC(=O)OCC)CC1CCCCC1 [Example 60]", "experimental-target": "HIV-1 protease (Human immunodeficiency virus type 1 group M subtype B)", "observed-value": "50 µM"}
{"compound": "CCC(C)C(NC(=O)C(Cc1ccccc1)CC(O)CC(Cc1ccccc1)C(=O)NC(C(=O)NCc1nc2ccccc2[nH]1)C(C)CC)C(=O)NCc1nc2ccccc2[nH]1 (centres unmarked) [Example 329]", "experimental-target": "HIV-1 protease (Human immunodeficiency virus type 1 group M subtype B)", "observed-value": "0.005 µM"}
{"compound": "O=C(NC1CCCCC1)[C@H](Cc1ccccc1)CC(O)C[C@@H](Cc1ccccc1)C(=O)NC1CCCCC1 [Example 330]", "experimental-target": "HIV-1 protease (Human immunodeficiency virus type 1 group M subtype B)", "observed-value": "0.1 µM"}
{"compound": "O=C(NCC1CCCCC1)C(Cc1ccccc1)CC(O)CC(Cc1ccccc1)C(=O)NCC1CCCCC1 (centres unmarked) [Example 42]", "experimental-target": "HIV-1 protease (Human immunodeficiency virus type 1 group M subtype B)", "observed-value": "50 µM"}
{"compound": "CC(C)(C)NC(=O)C1CCCCN1CC(O)(CO)CN1CCCCC1C(=O)NC(C)(C)C (single isomer, unassigned) [58 (Isomer A)]", "experimental-target": "HIV-1 protease (Human immunodeficiency virus type 1 group M subtype B)", "observed-value": "> 1000 µM"}
